Test: in vivo
Details: mouse, iv, 3 mg/kg
parameter: Cmax (ng/mL)
Record the value in ng/mL, omitting the unit from your answer.

Q: Requested field: Cmax. Item: CS(=O)(=O)Nc1ncn(-c2cc(F)c(COc3ccc(OS(=O)(=O)F)cc3)c(F)c2)n1 [Compound 21b]
Ans: 3310

* * *

Assay: in vitro
Details: human
parameter: CC50 at 72 h (µM)
Give the quantity in µM, number only.

Solved entries (count: 5):
> print(dat)
                                   molecule     parameter  measured
1  CCc1ncn(-c2cc(F)c(COc3ccc(OS(=O)(=O)F)cc3)c(F)c2)n1 [Compound 20b]  CC50 at 72 h       5.8
2  O=S(=O)(F)Oc1ccc(OCc2c(F)cc(-c3cnoc3)cc2F)cc1 [Compound 19j]  CC50 at 72 h      6.99
3  Cc1ncn(-c2cc(F)c(COc3ccc(OS(=O)(=O)F)cc3)c(F)c2)n1 [Compound 20a]  CC50 at 72 h      16.3
4  O=S(=O)(F)Oc1ccc(OCc2ccc(-n3cncn3)cc2F)cc1  CC50 at 72 h      12.5
5  O=S(=O)(F)Oc1ccc(OCc2ccc(-n3cncn3)c(F)c2)cc1  CC50 at 72 h      17.6

Q: Could you tell me which CC50 at 72 h is on file for O=S(=O)(F)Oc1ccc(OCc2c(F)cc(-n3cnnn3)cc2F)cc1 ?
Ans: 12.1

Q: Could you tell me which CC50 at 72 h is on file for O=S(=O)(F)Oc1ccc(OCc2c(F)cc(-n3ccnc3)cc2F)cc1 [Compound 19f] ?
Ans: 8.63

Q: Item O=S(=O)(F)Oc1ccc(OCc2c(F)cc(-n3cncn3)cc2F)cc1 has what recorded CC50 at 72 h?
Ans: 5.8

Q: Can you share its CC50 at 72 h? I mean this molecule: O=S(=O)(F)Oc1ccc(OCc2c(F)cc(-c3ccn[nH]3)cc2F)cc1 [Compound 19c]
Ans: 18.5

* * *

Assay: in vitro
Details: human
CC50 at 72 h reference
Write it as a number; the unit µM goes unstated.

> print(dat)
                                   molecule  measured
1  O=S(=O)(F)Oc1ccc(OCc2c(F)cc(-c3ncc[nH]3)cc2F)cc1 [Compound 19d]      30.1
2  CN(c1ncn(-c2cc(F)c(COc3ccc(OS(=O)(=O)F)cc3)c(F)c2)n1)S(C)(=O)=O [Compound 21c]      15.3
3  CC(C)c1ncn(-c2cc(F)c(COc3ccc(OS(=O)(=O)F)cc3)c(F)c2)n1 [Compound 20c]      12.4
4  COc1cc(OCc2ccc(-n3cncn3)cc2)ccc1OS(=O)(=O)F      13.3
5  Cn1ccnc1-c1cc(F)c(COc2ccc(OS(=O)(=O)F)cc2)c(F)c1 [Compound 19e]      13.7
6  O=S(=O)(F)Oc1ccc(OCc2cc(F)c(-n3cncn3)cc2F)cc1      29.5
7  CC(C)(C)c1ncn(-c2cc(F)c(COc3ccc(OS(=O)(=O)F)cc3)c(F)c2)n1 [Compound 20d]       6.9

--- query ---
Q: Sample O=S(=O)(F)Oc1ccc(OCc2c(F)cc(-c3nnc[nH]3)cc2F)cc1 [Compound 19a] — what was its CC50 at 72 h?
Ans: 19.3

* * *

Test system: Mtb H37Ra
Assay: microbe, parasite or virus in culture
Assay type: cell-based
Settings: Mycobacterium tuberculosis, 168 h, read-out: H37Ra IC50
Examples of molecules with documented IC50 follow.
Field format: number, assumed µM, no unit text.

> print(dat)
                                   molecule  reading.unit  measured
1  CC(=O)Nc1ccc(COc2ccc(OS(=O)(=O)F)cc2)cc1 [Compound 2]            µM       1.3

Now take the following molecule into account.
Q: Any idea what IC50 was measured for O=S(=O)(F)Oc1ccc(OCc2ccc(-n3cncn3)cc2)cc1 [Compound 3a] ?
Ans: 1.5

* * *

Experiment: in vitro
Conditions: mouse, plasma
parameter: fraction unbound
Give the figure by itself; no unit, no explanation.

Q: Sample CS(=O)(=O)Nc1ncn(-c2cc(F)c(COc3ccc(OS(=O)(=O)F)cc3)c(F)c2)n1 [Compound 21b] — what was its fraction unbound?
Ans: 0.008

* * *

Assay: HEK293T cytotoxicity assay (Cell Titer-Glo)
Format: cell-based
Conditions: human, HEK293T cells; HEK293T, 3 days
Quick reference for CC50 at 72 h among some molecules
Number only, in µM; omit the unit.

Below, 4 molecules whose answers are already recorded.
> print(dat)
                                   molecule  measured
1  O=S(=O)(F)Oc1ccc(OCc2ccc(-n3cncn3)c(F)c2F)cc1      18.8
2  O=S(=O)(F)Oc1ccc(OCc2cc(F)c(-n3cncn3)c(F)c2)cc1      34.8
3  O=S(=O)(F)Oc1ccc(OCc2ccc(-n3cncn3)cc2F)cc1      22.7
4  O=S(=O)(F)Oc1ccc(OCc2ccc(-n3cncn3)cc2)cc1      11.6

Q: Please report the recorded CC50 at 72 h for O=S(=O)(F)Oc1ccc(OCc2ccc(-n3cncn3)c(F)c2)cc1 .
Ans: 16.8

* * *

Tested on: Mtb H37Rv
Experiment: MIC determination in Mtb H37Rv, Microdilution Alamar Blue Assay (MABA)
Assay type: cell-based, Mycobacterium tuberculosis
Details: Mycobacterium tuberculosis, H37RV, 168 h, Mtb H37Rv, MABA, 7 days
MIC listing for selected molecules.
Write the value in µM as a bare number.

> print(dat)
                                   molecule  measured
1  O=C(O)c1ncn(-c2cc(F)c(COc3ccc(OS(=O)(=O)F)cc3)c(F)c2)n1 [Compound 20j]      1.25
2  O=S(=O)(F)Oc1ccc(OCc2ccc(-n3cncn3)cc2)cc1 [Compound 3a]      2.84
3  Cc1ncn(-c2cc(F)c(COc3ccc(OS(=O)(=O)F)cc3)c(F)c2)n1 [Compound 20a]       0.3
4  Cn1cnc(-c2cc(F)c(COc3ccc(OS(=O)(=O)F)cc3)c(F)c2)n1 [Compound 19b]      1.25

Q: Looking for the measured MIC of O=S(=O)(F)Oc1ccc(OCc2c(F)cc(-n3ccnc3)cc2F)cc1 [Compound 19f] , can you help?
Ans: 0.37

Q: Look at this molecule and give its reported MIC. O=S(=O)(F)Oc1ccc(OCc2c(F)cc(-c3ccn[nH]3)cc2F)cc1 [Compound 19c]
Ans: 0.84

Q: Return reported MIC; argument: Cn1ccnc1-c1cc(F)c(COc2ccc(OS(=O)(=O)F)cc2)c(F)c1 [Compound 19e]
Ans: 1.25

Q: Could you share which MIC value was measured for CS(=O)(=O)Nc1ncn(-c2cc(F)c(COc3ccc(OS(=O)(=O)F)cc3)c(F)c2)n1 [Compound 21b] ?
Ans: 0.06

Q: Entry O=S(=O)(F)Oc1ccc(OCc2c(F)cc(-c3ncc[nH]3)cc2F)cc1 [Compound 19d] : reported MIC = ?
Ans: 0.3

Q: Fill in: MIC of O=S(=O)(F)Oc1ccc(OCc2cc(F)c(-n3cncn3)cc2F)cc1 [Compound 3 h] is ___
Ans: 1.25

Q: Find the recorded MIC belonging to COc1cc(OCc2ccc(-n3cncn3)cc2)ccc1OS(=O)(=O)F [Compound 3b] and report it.
Ans: 25

Q: Fill blank: measured MIC of the molecule O=S(=O)(F)Oc1ccc(OCc2c(F)cc(-n3cnnn3)cc2F)cc1 [Compound 19 g] is ____.
Ans: 0.45

Q: Look up MIC for this molecule: CC(=O)Nc1ncn(-c2cc(F)c(COc3ccc(OS(=O)(=O)F)cc3)c(F)c2)n1 [Compound 21a]
Ans: 0.15

Q: For the molecule O=S(=O)(F)Oc1ccc(OCc2ccc(-n3cncn3)cc2F)cc1 [Compound 3d] , what MIC is on record?
Ans: 0.6

Q: Please look up its MIC: CC(C)c1ncn(-c2cc(F)c(COc3ccc(OS(=O)(=O)F)cc3)c(F)c2)n1 [Compound 20c]
Ans: 0.6

Q: Given CN(c1ncn(-c2cc(F)c(COc3ccc(OS(=O)(=O)F)cc3)c(F)c2)n1)S(C)(=O)=O [Compound 21c] , state its recorded MIC.
Ans: 0.31

Q: What value of MIC has been reported for the following molecule? CC(C)(C)S(=O)(=O)Nc1ncn(-c2cc(F)c(COc3ccc(OS(=O)(=O)F)cc3)c(F)c2)n1 [Compound 21f]
Ans: 2.5

Q: Which MIC is listed for COc1ncn(-c2cc(F)c(COc3ccc(OS(=O)(=O)F)cc3)c(F)c2)n1 [Compound 20f] ?
Ans: 0.6

* * *

Test: in vitro
Conditions: mouse, po, 20 mg/kg
parameter: fraction unbound
Answer with the value's number alone.

Q: Look up fraction unbound for this molecule: CS(=O)(=O)Nc1ncn(-c2cc(F)c(COc3ccc(OS(=O)(=O)F)cc3)c(F)c2)n1 [Compound 21b]
Ans: 0.016
